Taken from patent US4002623A.

experiment: adjuvant arthritis screen (Walz et al.), swelling of the non-injected left hind foot on Day 16; format: in vivo, male inbred Lewis rats; conditions: Rattus norvegicus, 384 h, 20 mg./kg. po, daily day -1 through day 15, read-out: Activity Percent Inhibition
property name: inhibition in vivo at 20 mg/kg (%)
The reply should be a number in %, with the unit left off.

## Task Consider the compound CN1CCN(CCCn2c(NC(=O)c3ccccc3)nc3cc(S(=O)(=O)N(C)C)ccc32)CC1 [Phenyl; SO2 N(CH3)2; H; drawing 24] . State its measured inhibition in vivo at 20 mg/kg.
## Result 32

## Task Hello, please tell me recorded inhibition in vivo at 20 mg/kg for this one: Cc1cc2nc(NC(=O)c3ccccc3)n(CCCN3CCN(C)CC3)c2cc1C [Phenyl; CH3; CH3; drawing 24]
## Result 31

## Task For Cc1ccc2nc(NC(=O)c3cccc(C(F)(F)F)c3)n(CCCN3CCN(C)CC3)c2c1 [3-Trifluoromethylphenyl; H; CH3; drawing 24] , write its inhibition in vivo at 20 mg/kg.
## Result 21

## Task Retrieve inhibition in vivo at 20 mg/kg measured for CN1CCN(CCCn2c(NC(=O)c3ccco3)nc3ccccc32)CC1 [2-Furyl; H; H; drawing 24] and print it.
## Result 43

## Task Report inhibition in vivo at 20 mg/kg for Cc1ccc2c(c1)nc(NC(=O)c1cccc(Cl)c1)n2CCCN1CCN(C)CC1 [3-Chlorophenyl; CH3; H; drawing 24]
## Result 29

## Task Read the entry Cc1ccc2c(c1)nc(NC(=O)c1cccc(C(F)(F)F)c1)n2CCCN1CCN(C)CC1 [3-Trifluoromethylphenyl; CH3; H; drawing 24] and write its reported inhibition in vivo at 20 mg/kg.
## Result 27

## Task Please give measured inhibition in vivo at 20 mg/kg of the following entry: COc1cccc(C(=O)Nc2nc3cc(C)ccc3n2CCCN2CCN(C)CC2)c1 [3-Methoxyphenyl; CH3; H; drawing 24]
## Result 37
